System: CCRF-CEM leukemia
method-notes: NCI tumour cell line growth inhibition, 48 h
endpoint-label: TGI

Please indicate recorded TGI of CCN(CC)CCN(C(=Nc1ccccc1)N1CCOCC1)c1ccccc1 measured with CCRF-CEM leukemia.
> 100 µM

Please indicate recorded TGI of Cc1cc2c(cc1Cl)SC(N(N(C)C)S(=O)(=O)c1ccc(Cl)cc1)=NS2(=O)=O measured with CCRF-CEM leukemia.
> 100 µM

Please indicate recorded TGI of CN(C)c1ccc(S(=O)Nc2ccccc2)cc1 (stereo not drawn) measured with CCRF-CEM leukemia.
> 100 µM

###

Tested on: SK-MEL-28 melanoma
method-notes: NCI tumour cell line growth inhibition, 48 h
Give TGI for every item shown.

Consider the molecule Cc1ccccc1S(=O)(=O)OC1NS(=O)(=O)c2ccccc21 (stereo unspecified) . State its measured TGI.
> 100 µM

Consider the molecule CO[C@H]1/C=C(/C)CCC[C@H](C)[C@H](O)[C@@H](C)C(=O)C(C)(C)[C@@H](O)CC(=O)O[C@@H]1/C(C)=C/c1csc(C)n1 . State its measured TGI.
> 100 µM

Consider the molecule C#CC1(O)CCC2C3CCc4cc(Oc5nc(F)nc(-c6c7ccccc7c7sc8ccccc8n67)n5)ccc4C3CC[C@@]21C (stereo partly specified) . State its measured TGI.
> 100 µM

Consider the molecule CCOC(=O)NC(=O)c1cn(CCCO)c(=O)[nH]c1=O . State its measured TGI.
> 100 µM

Consider the molecule N=C(N)SCc1ccc2c(c1)Sc1ccccc1O2 . State its measured TGI.
38.7 µM

Consider the molecule O=C(O)CCC(=O)OC1N=C(c2ccccc2Cl)c2cc([N+](=O)[O-])ccc2NC1=O (stereo unspecified) . State its measured TGI.
> 100 µM

Consider the molecule CCOC(=O)Cn1c(=O)c2nc(SC)sc2n(-c2ccccc2)c1=O . State its measured TGI.
> 100 µM

Consider the molecule CN(C)c1ccc(S(=O)Nc2ccccc2)cc1 (stereo unspecified) . State its measured TGI.
> 100 µM

Consider the molecule CCN(CC)c1ccc(-c2cc(-c3cc(OC)c(OC)c(OC)c3)nc(N3CCOCC3)c2C#N)cc1 . State its measured TGI.
> 63.5 µM

Consider the molecule CCc1cc(Cc2cc(CC)c(NC(=O)C(=O)Cc3ccccn3)c(CC)c2Cl)c(Cl)c(CC)c1NC(=O)C(=O)Cc1ccccn1 . State its measured TGI.
> 100 µM

Consider the molecule NC1(C(=O)OCc2ccccc2)CCCC1 . State its measured TGI.
48.7 µM

###

Test system: HCT-116 colon
method-notes: NCI tumour cell line growth inhibition, 48 h
endpoint-label: TGI

Consider the compound Cc1c(S(=O)(=O)c2ccccc2)c(N)n(CCN(C)C)c1C . State its measured TGI.
> 100 µM

Consider the compound C=C1C(=O)O[C@H]2[C@H]1CC/C(COC(=O)c1c[nH]c3ccccc13)=C\CC[C@@]1(C)O[C@@H]21 . State its measured TGI.
0.459 µM

Consider the compound CCOC(=O)Cn1c(=O)c2nc(SC)sc2n(-c2ccccc2)c1=O . State its measured TGI.
> 100 µM

Consider the compound CCOC(=O)C1=C(C)C2C=C(c3cccs3)CC(c3ccc(Cl)cc3)=C2OC1=O (stereo not drawn) . State its measured TGI.
69.2 µM

Consider the compound COc1ccc(-c2nc(SCC(=O)N/N=C/c3ccc(N(C)C)cc3)[nH]c2-c2ccc(OC)cc2)cc1 . State its measured TGI.
> 100 µM

Consider the compound OC(c1nc2ccccc2[nH]1)C(O)C(O)C(O)c1nc2ccccc2[nH]1 (stereo not drawn) . State its measured TGI.
> 100 µM

Consider the compound COc1ccc2c(c1)OCC1Cc3ccccc3OC21 (stereo not drawn) . State its measured TGI.
> 100 µM

Consider the compound Cc1nc(N)c(N2CCN([N+](=O)[O-])CC2)c(=O)[nH]1 . State its measured TGI.
> 100 µM

Consider the compound COc1cc(/C=C/C(=O)CC(=O)/C=C/c2ccc(OC(=O)CCCCC3CCSS3)c(OC)c2)ccc1OC(=O)CCCCC1CCSS1 (stereo not drawn) . State its measured TGI.
> 100 µM

Consider the compound OCC#Cc1ccccc1C#Cc1ccccc1 . State its measured TGI.
28.6 µM

Consider the compound Cc1c2c(nn1-c1ccc(S(=O)(=O)/N=C3\SCCC(=O)N3c3ccccc3)cc1)-c1ccccc1CC2 . State its measured TGI.
> 100 µM

Consider the compound CCOC(=O)C(=C=C=C(c1ccccc1)c1ccccc1)C(=O)OCC . State its measured TGI.
38.6 µM

Consider the compound COP(=O)(/C=C/c1cc(C(=O)OCc2ccccc2)n(S(=O)(=O)c2ccccc2)c1)OC . State its measured TGI.
> 100 µM

Consider the compound COc1cc2c(c(OC)c1OC)-c1ccc(OC)c(=O)cc1C(NC(=O)c1ccc(N=[N+]=[N-])cc1)CC2 (stereo not drawn) . State its measured TGI.
18.2 µM

Consider the compound CC(=O)OC1=CC(n2cc(F)c(=O)[nH]c2=O)OC(C)C1=O (stereo not drawn) . State its measured TGI.
> 100 µM

Consider the compound CCN(CC)CCn1c(=O)c2cccnc2n2c3c(=O)n(C)c(=O)n(C)c3nc12 . State its measured TGI.
> 100 µM

Consider the compound N#CC12C(=O)N=C(N)C1(C#N)C(c1ccco1)NC1=C2CCCC1 (stereo not drawn) . State its measured TGI.
> 100 µM

Consider the compound CSc1nsc(-c2ccccc2)[s+]1 . State its measured TGI.
> 100 µM

###

System: RXF 393 renal
method-notes: NCI tumour cell line growth inhibition, 48 h
endpoint-label: log10(TGI) (log10 of the value in µM)
Use the decimal logarithm of TGI (µM).

Consider the compound CC(=O)[C@@]12O[C@@H]1CC1C3CCC4=CC(O)CCC4(C)C3CCC12C (some centres not stated) . State its measured log10(TGI).
1.82

Consider the compound Nc1ncnc2c1nnn2C1OC(CO)C(O)C1O (configuration not stated) . State its measured log10(TGI).
0.18

Consider the compound COc1cc(/C=C2\CN(S(=O)(=O)c3ccccc3)C/C(=C\c3cc(CN4CCCC4)c(O)c(OC)c3)C2=O)cc(CN2CCCC2)c1O . State its measured log10(TGI).
0.45

Consider the compound Cn1cnc([N+](=O)[O-])c1Sc1nc2ccccc2[nH]1 . State its measured log10(TGI).
1.40

Consider the compound CO[C@H]1/C=C(/C)CCC[C@H](C)[C@H](O)[C@@H](C)C(=O)C(C)(C)[C@@H](O)CC(=O)O[C@@H]1/C(C)=C/c1csc(C)n1 . State its measured log10(TGI).
-1.14

Consider the compound COc1ccc([C@H]2[C@@H](F)C(=O)N2c2cc(OC)c(OC)c(OC)c2)cc1F . State its measured log10(TGI).
1.82

Consider the compound CN(C)c1ccc(C(=N/N=C2\C(=O)Nc3ccccc32)c2ccc(N(C)C)cc2)cc1 . State its measured log10(TGI).
0.09

Consider the compound OCCc1ccsc1-c1sc(-c2cc(CCO)c(-c3sccc3CCO)s2)cc1CCO . State its measured log10(TGI).
0.96

Consider the compound N=C(N)SCc1ccc2c(c1)Sc1ccccc1O2 . State its measured log10(TGI).
1.15

Consider the compound O=C(/C=C\c1ccc(Cl)c(Cl)c1)c1ccc(Cl)cc1Cl . State its measured log10(TGI).
1.60

Consider the compound COC(=O)C1=C(C)NC(C)=C(C(=O)OCCCN2CCC(c3ccccc3)(c3ccccc3)CC2)C1c1cccc([N+](=O)[O-])c1 (configuration not stated) . State its measured log10(TGI).
0.54

Consider the compound OCCCCCNCc1cc2cc3c(cc2c2cc(OCc4ccccc4)ccc12)OCO3 . State its measured log10(TGI).
0.34

Consider the compound CCCCCCCC(=O)SCC/C=C/[C@@H]1CC(=O)NCc2cc(ccn2)C2=N[C@@](C)(CS2)C(=O)N[C@@H](C(C)C)C(=O)O1 . State its measured log10(TGI).
-1.09

Consider the compound N#Cc1c(-c2ccccc2)/c(=C\Nc2ccc(F)cc2)c(=O)n2c1nc1ccccc12 . State its measured log10(TGI).
1.72

###

Give TGI for every item shown.
System: M14 melanoma
method-notes: NCI tumour cell line growth inhibition, 48 h

Consider the compound COc1c(Cl)c(=O)oc2ccc(Cl)cc12 . State its measured TGI.
> 100 µM

Consider the compound Cc1cc2c(cc1Cl)SC(N(N(C)C)S(=O)(=O)c1ccc(Cl)cc1)=NS2(=O)=O . State its measured TGI.
> 100 µM

Consider the compound O=C1NCCN1/N=C/c1c(Cl)n(-c2ccccc2)c2ccccc12 . State its measured TGI.
36.8 µM

Consider the compound CC1=NN(c2cccc(Cl)c2)C2(C1=C/C=C/c1ccccc1)C(Cl)C(=O)N2c1nc2ccccc2s1 (stereo not given) . State its measured TGI.
> 91.2 µM

Consider the compound CCCCCCCC(=O)SCC/C=C/[C@@H]1CC(=O)NCc2cc(ccn2)C2=N[C@@](C)(CS2)C(=O)N[C@@H](C(C)C)C(=O)O1 . State its measured TGI.
> 13.3 µM

Consider the compound Cc1cccc(NC(=O)Cn2cnc3sc(C(=O)OC(C)C)c(C)c3c2=O)c1 . State its measured TGI.
> 50 µM

Consider the compound COc1ccc2c(c1)/C(=C\c1c(Cl)nc3sc(C)cn13)C(=O)N2 . State its measured TGI.
8.89 µM

Consider the compound Brc1ccccc1C1SCc2nc3ccccc3n21 (stereo not given) . State its measured TGI.
31.4 µM

Consider the compound CC(=O)[C@@]12O[C@@H]1CC1C3CCC4=CC(O)CCC4(C)C3CCC12C (stereo not given in full) . State its measured TGI.
> 100 µM

Consider the compound Cc1ccc(S(=O)(=O)N/N=C/C2(c3ccccc3)c3ccccc3-c3ccccc32)cc1 . State its measured TGI.
23.3 µM

Consider the compound O=[N+]([O-])C(/C=C(\Cl)n1nnc2ccccc21)=C(/Cl)n1nnc2ccccc21 . State its measured TGI.
> 100 µM

Consider the compound O=C1NCC2(CCN(CCCC3(c4ccc(F)cc4)OCCO3)CC2)N1c1ccccc1 . State its measured TGI.
> 100 µM

Consider the compound N#CC(C#N)=CNC(N)=S . State its measured TGI.
> 100 µM

Consider the compound COc1ncnc(NS(=O)(=O)c2ccc(N=C3C(=O)N(CN4CCN(c5c(F)cc6c(=O)c(C(=O)O)cn(C7CC7)c6c5OC)CC4C)c4ccc(Cl)cc43)cc2)c1OC (stereo not given) . State its measured TGI.
> 50 µM

Consider the compound O=C(Nc1ccc(Cl)cc1)c1cccc(NC2=C(Cl)C(=O)N(Cc3ccccc3)C2=O)c1 . State its measured TGI.
72.8 µM

Consider the compound COc1cc(/C=C/c2cc(O)c(C(C)=O)c(O)c2)cc2c1O[C@]1(C)CC[C@@H](O)C(C)(C)[C@H]1C2 . State its measured TGI.
49.4 µM

Consider the compound CN(C)c1ccc(C(=N/N=C2\C(=O)Nc3ccccc32)c2ccc(N(C)C)cc2)cc1 . State its measured TGI.
14.4 µM

Consider the compound CC(=O)/C(=C\c1cccc([N+](=O)[O-])c1)C(=O)Nc1ccccc1C . State its measured TGI.
> 100 µM

Consider the compound NS(=O)(=O)c1cc2c(cc1Cl)NC(CCC(=O)O)=NS2(=O)=O . State its measured TGI.
> 100 µM

Consider the compound CC(C)=Cc1cc(C(=O)Nc2ccc(Cl)c(Cl)c2)nc(N)n1 . State its measured TGI.
> 100 µM

Consider the compound O=c1[nH]c(=O)n(C2OC(CO)C(O)C2O)c2nc(-c3ccc(-c4ccccc4)cc3)cnc12 (stereo not given) . State its measured TGI.
> 100 µM

Consider the compound COc1cc(C2c3cc4c(cc3OC(NN)C2C)OCO4)cc(OC)c1OC (stereo not given) . State its measured TGI.
> 100 µM

Consider the compound O=C(CSc1ccc(Cl)cc1)Nc1ccc(-c2nc3ccccc3s2)c(Cl)c1 . State its measured TGI.
33.8 µM

Consider the compound N#CC12C(=O)N=C(N)C1(C#N)C(c1ccco1)NC1=C2CCCC1 (stereo not given) . State its measured TGI.
> 100 µM

Consider the compound COC(=O)C1=C(C)NC(C)=C(C(=O)OCCCN2CCC(c3ccccc3)(c3ccccc3)CC2)C1c1cccc([N+](=O)[O-])c1 (stereo not given) . State its measured TGI.
3.13 µM
